# measurementTarget: RORα (Homo sapiens, UniProt P35398)
# Construct: hRORα (Pro-211-end); expressed in transfected cells
# protocolSummary: Gal4-RORα-LBD UAS-luciferase reporter assay in TRex-CHO-K1 cells (doxycycline-stimulated)
# Format: cell-based
# recordedConditions: IC50 (μM) (N=4) RORα, individual controls of library 1295, second confirmatory dose response, Figure 2
Values of IC50 strictly less than 10 µM map to 1 (yes), and values of at least 10 µM map to 0 (no).

Just wondering, is IC50 of O=C(Cc1ccccc1)NC1=NC[C@H](Cc2ccccc2)N1CCC1CC2CCC1C2 (stereo partly drawn) below 10 µM?
1 (yes)

Just wondering, is IC50 of "O=C(Cc1ccccc1)NC1=NC[C@H](Cc2ccccc2)N1CCC1CCCCC1" below 10 µM?
0 (no)

Just wondering, is IC50 of CC1CCC(CN2C(NC(=O)Cc3ccccc3)=NC[C@@H]2Cc2ccccc2)CC1 (stereo partly drawn) below 10 µM?
1 (yes)

Just wondering, is IC50 of O=C(CC1CC2CCC1C2)NC1=NC[C@H](Cc2ccccc2)N1CCc1ccccc1 (stereo partly drawn) below 10 µM?
1 (yes)

Just wondering, is IC50 of "O=C(CCc1ccccc1)NC1=NC[C@H](Cc2ccccc2)N1CCc1ccccc1" below 10 µM?
0 (no)

Just wondering, is IC50 of "O=C(CC1CCCCC1)NC1=NC[C@H](Cc2ccccc2)N1CCc1ccccc1" below 10 µM?
0 (no)

====

# measurementTarget: RORα (Homo sapiens)
# Construct: hRORα (Pro-211-end); expressed in transfected cells
# Sequence (P35398 266-523): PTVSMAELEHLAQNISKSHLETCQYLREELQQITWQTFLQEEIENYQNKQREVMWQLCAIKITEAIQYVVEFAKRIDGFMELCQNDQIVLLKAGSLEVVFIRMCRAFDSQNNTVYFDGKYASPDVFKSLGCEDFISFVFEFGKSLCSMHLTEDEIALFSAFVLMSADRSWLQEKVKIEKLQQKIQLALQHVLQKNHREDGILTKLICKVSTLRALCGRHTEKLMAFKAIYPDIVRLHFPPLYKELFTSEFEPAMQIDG
# protocolSummary: Gal4-RORα-LBD UAS-luciferase reporter assay in TRex-CHO-K1 cells (doxycycline-stimulated)
# Assay type: cell-based
# recordedConditions: RORα : IC50, Figure 6, confirmatory experiment, N = 4
Hi there, I'd appreciate the recorded pIC50 for every entry that follows.
pIC50 here: minus log base 10 of the concentration, concentration in moles per litre.

State recorded pIC50 with RORα (Homo sapiens), entry CCC(C(=O)NC1=NC[C@H](Cc2ccccc2)N1CCC(C)c1ccccc1)c1ccccc1 (some centres unmarked) [2520.31] , no comment.
5.17

State recorded pIC50 with RORα (Homo sapiens), entry CCOc1ccc(C[C@H]2CN=C(NC(=O)C(CC)c3ccccc3)N2CC2CCCCC2)cc1 (some centres unmarked) [2520.39] , no comment.
5.20

====

# measurementTarget: RORγ (Mus musculus, UniProt P51450)
# Construct: mRORγ (Pro-261-end); expressed in transfected cells
# Sequence (P51450 261-516 limits assumed): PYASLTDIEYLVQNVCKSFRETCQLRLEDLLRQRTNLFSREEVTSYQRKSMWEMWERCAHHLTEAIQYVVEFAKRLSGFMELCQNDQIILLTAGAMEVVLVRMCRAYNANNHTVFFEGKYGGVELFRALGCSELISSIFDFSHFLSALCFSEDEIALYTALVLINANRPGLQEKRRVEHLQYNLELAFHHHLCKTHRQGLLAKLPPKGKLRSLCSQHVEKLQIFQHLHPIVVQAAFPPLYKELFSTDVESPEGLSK
# protocolSummary: Gal4-RORγ-LBD UAS-luciferase reporter assay in TRex-CHO-K1 cells (doxycycline-stimulated)
# Format: cell-based
# recordedConditions: library 2520, RORγ cells
parameter: % Inhibition at 4 μM (N=3) (%)
Answer format: numeric, % implied, no suffix.

Answer with reported % Inhibition at 4 μM (N=3) of CC(C)C(=O)NC1=NCC(Cc2ccc3ccccc3c2)N1CCC(C)c1ccccc1 (mixture of isomers) [2520.04]
-40.8

Answer with reported % Inhibition at 4 μM (N=3) of COc1ccc(CC(=O)NC2=NCC(Cc3ccccc3)N2CCC(C)c2ccccc2)cc1 (mixture of isomers) [2520.34]
34.4

Answer with reported % Inhibition at 4 μM (N=3) of CCC(C(=O)NC1=NCC(C(C)CC)N1CC1CCCCC1)c1ccccc1 (mixture of isomers) [2520.15]
43.6

Answer with reported % Inhibition at 4 μM (N=3) of COc1ccc(CC(=O)NC2=NCC(Cc3ccc4ccccc4c3)N2CCC2CC3CCC2C3)cc1 (mixture of isomers) [2520.02]
-33.8

Answer with reported % Inhibition at 4 μM (N=3) of CCC(C(=O)NC1=NCC(Cc2ccccc2)N1CC1CCCCC1)c1ccccc1 (mixture of isomers) [2520.27]
97.7

Answer with reported % Inhibition at 4 μM (N=3) of COc1ccc(CC(=O)NC2=NC[C@H](Cc3ccc4ccccc4c3)N2CC2CCCCC2)cc1 [2520.06]
-56.4

Answer with reported % Inhibition at 4 μM (N=3) of CC(C)C(=O)NC1=NCC(Cc2ccccc2)N1CCC(C)c1ccccc1 (mixture of isomers) [2520.28]
69.8

Answer with reported % Inhibition at 4 μM (N=3) of CCC(C)C1CN=C(NC(=O)Cc2ccc(OC)cc2)N1CCC1CC2CCC1C2 (mixture of isomers) [2520.14]
43.0

Answer with reported % Inhibition at 4 μM (N=3) of COc1ccc(CC(=O)NC2=NCC(Cc3ccccc3)N2CCC2CC3CCC2C3)cc1 (mixture of isomers) [2520.26]
40.8

Answer with reported % Inhibition at 4 μM (N=3) of CCOc1ccc(CC2CN=C(NC(=O)C(CC)c3ccccc3)N2CCC(C)c2ccccc2)cc1 (mixture of isomers) [2520.43]
-5.4

Answer with reported % Inhibition at 4 μM (N=3) of COc1ccc(CC(=O)NC2=NCC(Cc3ccc4ccccc4c3)N2CCC(C)c2ccccc2)cc1 (mixture of isomers) [2520.10]
-7.3

Answer with reported % Inhibition at 4 μM (N=3) of CCOc1ccc(CC2CN=C(NC(=O)Cc3ccc(OC)cc3)N2CCC(C)c2ccccc2)cc1 (mixture of isomers) [2520.46]
67.3
